pIC50: −log10 of the molar value.
The molecules below each have a reported pIC50 tested on Lysine-specific histone demethylase 1A (Homo sapiens); the values come from various publications.
property-name: pIC50

1) COc1ccc(-n2nc(NC[C@H]3CCC[C@H](N)C3)cc2-c2ccc(C(F)(F)F)c(F)c2)cc1
5.00 to 6.00
2) Cn1ncc2cc(-n3nc(NC[C@H]4CCC[C@H](N)C4)cc3-c3ccc(C#N)c(F)c3)ccc21 (single isomer, unassigned)
> 6.30
3) COc1ccc(-c2c(-c3ccc(C#N)cc3)cc(N3CCC(N)CC3)c(=O)n2CC2CC2)cc1
> 7.00
4) N#Cc1ccc(-c2nc(NC[C@H]3CCNC3)ncc2-c2ccc(Cl)cc2)cc1
> 7.00
5) Fc1ccccc1CNCC1(CN[C@H]2CC2c2ccccc2)CC1 (stereo partly drawn)
≥ 7.30
6) c1ccc([C@@H]2C[C@H]2NCC2(c3noc(C4CCC5(CC4)CNC5)n3)CC2)cc1
≥ 7.30

----------
The molecules below each have a reported IC50 tested on Lysine-specific histone demethylase 1A (Homo sapiens, UniProt O60341); the values come from various publications.
property-name: IC50

1) COC(=O)[C@H]1CC[C@H](c2nc(C3(CN[C@@H]4C[C@H]4c4ccccc4)CC3)no2)CC1
≤ 50 nM
2) Cn1cnc2cc(-c3sc(N4CC[C@@H]5CNC[C@@H]5CC4)nc3-c3ccc(C#N)cc3)ccc21
≤ 100 nM
3) Cc1ccc(-c2nc3ccn(C[C@@H]4CCNC4)c3cc2-c2ccc(C#N)cc2)cc1
< 100 nM
4) Cn1cnc2cc(-c3sc(N4CCC(N)CC4)nc3-c3ccc(C#N)cc3)cnc21
≤ 100 nM
5) Cn1ncc2cc(-n3nc(NC[C@H]4CCC[C@@H](N)C4)cc3-c3ccc(C#N)c(F)c3)ccc21 (single isomer, unassigned)
500 to 1000 nM
6) O=C(O)C1CCN(c2nc(CCCN[C@@H]3C[C@H]3c3ccc(F)cc3)c[nH]c2=O)CC1
300 nM
7) CN1CCN(c2ccc(-n3nc(C(=O)N4CCC[C@H](N)C4)cc3-c3ccc(C#N)c(F)c3)cc2)CC1
< 500 nM
8) Cn1cc2cc(-n3nc(NCC4CCNCC4)cc3-c3ccc(C#N)c(F)c3)ccc2n1
< 500 nM
9) O=C(O)[C@@H]1CCCN1CC1(CN[C@H]2CC2c2ccccc2)CC1 (stereo partly drawn)
≤ 50 nM
10) CS(=O)(=O)N1CCN(c2nc(CCCN[C@@H]3C[C@H]3c3ccc(F)cc3)c[nH]c2=O)CC1
7 nM
11) O=C(O)c1ccc2c(c1)CN(CC1(CN[C@H]3C[C@@H]3c3ccccc3)CC1)C2
100 to 500 nM
12) CN[C@@H]1CCCN(C(=O)c2nc(-c3ccc(C#N)c(F)c3)n(-c3ccc4nn(C)cc4c3)c2C)C1
< 100 nM
13) COc1ccc(-c2c(-c3ccc(C#N)c(F)c3)nc(N3CCCNCC3)n(C)c2=O)cc1F
< 100 nM
14) CCn1cnc2cc(-c3ncc(N4CCC(N)CC4)nc3-c3ccc(C#N)c(F)c3)c(F)cc21
< 100 nM
15) COc1ccc(-c2c(-c3ccc(C#N)c(F)c3)nc(N3CC[C@H](N)[C@H](F)C3)n(C)c2=O)cc1
< 100 nM
16) CC1(N)CCC(c2nc(C3(CN[C@@H]4C[C@H]4c4ccccc4)CC3)no2)CC1 (stereo partly drawn)
≤ 50 nM
17) Cc1ccc(-n2nc(C(=O)N3CCCC(N)C3)cc2-c2ccc(C#N)c(F)c2)cc1 (stereo not drawn)
< 500 nM
18) N[C@H]1CC[C@H](c2nc(C3(CN[C@H]4C[C@@H]4c4ccccc4)CC3)no2)CC1
50 to 100 nM
19) Cc1ccc(-c2cnc(N3CC[C@@H]4CNC[C@@H]4CC3)nc2-c2ccc(C#N)cc2)cc1
< 100 nM
20) COc1ccc(-n2nc(N3CCCC4CCCCC43)cc2-c2ccc(C#N)c(F)c2)cc1 (stereo not drawn)
1000 to 10000 nM
21) Cc1ccc(-c2cnc(NCC3CCCNC3)nc2-c2ccc(C#N)cc2)cc1 (racemic)
< 100 nM
22) c1ccc(C2C[C@@H]2NCC2(c3noc4ccccc34)CC2)cc1 (stereo partly drawn)
≤ 50 nM
23) Cc1ccc(-c2cnc(N3CCC4(CCCN4)CC3)nc2-c2ccc(C#N)cc2)cc1
< 100 nM
24) COc1ccc(-n2c(-c3ccc(C#N)c(F)c3)nc(C(=O)N[C@H]3CCCNC3)c2Cl)cc1F
< 100 nM
25) CNC1CCN(c2cnc(-c3ccc4nn(C)cc4c3)c(-c3ccc(C#N)c(F)c3)n2)CC1
< 100 nM
26) Cn1nnc2cc(-c3ncc(N4CCC(N)CC4)nc3-c3ccc(C#N)c(F)c3)cnc21
< 100 nM
27) COc1ccc(-c2c(-c3ccc(C#N)cc3)nc(N3CCC(N)CC3)c(=O)n2C)cc1
< 100 nM
